The origin of these recorded values is PubChem BioAssay AID1671202.

Target: Huntingtin (Homo sapiens) (UniProt P42858)
Sequence (P42858 whole entry, looked up, stated change not applied): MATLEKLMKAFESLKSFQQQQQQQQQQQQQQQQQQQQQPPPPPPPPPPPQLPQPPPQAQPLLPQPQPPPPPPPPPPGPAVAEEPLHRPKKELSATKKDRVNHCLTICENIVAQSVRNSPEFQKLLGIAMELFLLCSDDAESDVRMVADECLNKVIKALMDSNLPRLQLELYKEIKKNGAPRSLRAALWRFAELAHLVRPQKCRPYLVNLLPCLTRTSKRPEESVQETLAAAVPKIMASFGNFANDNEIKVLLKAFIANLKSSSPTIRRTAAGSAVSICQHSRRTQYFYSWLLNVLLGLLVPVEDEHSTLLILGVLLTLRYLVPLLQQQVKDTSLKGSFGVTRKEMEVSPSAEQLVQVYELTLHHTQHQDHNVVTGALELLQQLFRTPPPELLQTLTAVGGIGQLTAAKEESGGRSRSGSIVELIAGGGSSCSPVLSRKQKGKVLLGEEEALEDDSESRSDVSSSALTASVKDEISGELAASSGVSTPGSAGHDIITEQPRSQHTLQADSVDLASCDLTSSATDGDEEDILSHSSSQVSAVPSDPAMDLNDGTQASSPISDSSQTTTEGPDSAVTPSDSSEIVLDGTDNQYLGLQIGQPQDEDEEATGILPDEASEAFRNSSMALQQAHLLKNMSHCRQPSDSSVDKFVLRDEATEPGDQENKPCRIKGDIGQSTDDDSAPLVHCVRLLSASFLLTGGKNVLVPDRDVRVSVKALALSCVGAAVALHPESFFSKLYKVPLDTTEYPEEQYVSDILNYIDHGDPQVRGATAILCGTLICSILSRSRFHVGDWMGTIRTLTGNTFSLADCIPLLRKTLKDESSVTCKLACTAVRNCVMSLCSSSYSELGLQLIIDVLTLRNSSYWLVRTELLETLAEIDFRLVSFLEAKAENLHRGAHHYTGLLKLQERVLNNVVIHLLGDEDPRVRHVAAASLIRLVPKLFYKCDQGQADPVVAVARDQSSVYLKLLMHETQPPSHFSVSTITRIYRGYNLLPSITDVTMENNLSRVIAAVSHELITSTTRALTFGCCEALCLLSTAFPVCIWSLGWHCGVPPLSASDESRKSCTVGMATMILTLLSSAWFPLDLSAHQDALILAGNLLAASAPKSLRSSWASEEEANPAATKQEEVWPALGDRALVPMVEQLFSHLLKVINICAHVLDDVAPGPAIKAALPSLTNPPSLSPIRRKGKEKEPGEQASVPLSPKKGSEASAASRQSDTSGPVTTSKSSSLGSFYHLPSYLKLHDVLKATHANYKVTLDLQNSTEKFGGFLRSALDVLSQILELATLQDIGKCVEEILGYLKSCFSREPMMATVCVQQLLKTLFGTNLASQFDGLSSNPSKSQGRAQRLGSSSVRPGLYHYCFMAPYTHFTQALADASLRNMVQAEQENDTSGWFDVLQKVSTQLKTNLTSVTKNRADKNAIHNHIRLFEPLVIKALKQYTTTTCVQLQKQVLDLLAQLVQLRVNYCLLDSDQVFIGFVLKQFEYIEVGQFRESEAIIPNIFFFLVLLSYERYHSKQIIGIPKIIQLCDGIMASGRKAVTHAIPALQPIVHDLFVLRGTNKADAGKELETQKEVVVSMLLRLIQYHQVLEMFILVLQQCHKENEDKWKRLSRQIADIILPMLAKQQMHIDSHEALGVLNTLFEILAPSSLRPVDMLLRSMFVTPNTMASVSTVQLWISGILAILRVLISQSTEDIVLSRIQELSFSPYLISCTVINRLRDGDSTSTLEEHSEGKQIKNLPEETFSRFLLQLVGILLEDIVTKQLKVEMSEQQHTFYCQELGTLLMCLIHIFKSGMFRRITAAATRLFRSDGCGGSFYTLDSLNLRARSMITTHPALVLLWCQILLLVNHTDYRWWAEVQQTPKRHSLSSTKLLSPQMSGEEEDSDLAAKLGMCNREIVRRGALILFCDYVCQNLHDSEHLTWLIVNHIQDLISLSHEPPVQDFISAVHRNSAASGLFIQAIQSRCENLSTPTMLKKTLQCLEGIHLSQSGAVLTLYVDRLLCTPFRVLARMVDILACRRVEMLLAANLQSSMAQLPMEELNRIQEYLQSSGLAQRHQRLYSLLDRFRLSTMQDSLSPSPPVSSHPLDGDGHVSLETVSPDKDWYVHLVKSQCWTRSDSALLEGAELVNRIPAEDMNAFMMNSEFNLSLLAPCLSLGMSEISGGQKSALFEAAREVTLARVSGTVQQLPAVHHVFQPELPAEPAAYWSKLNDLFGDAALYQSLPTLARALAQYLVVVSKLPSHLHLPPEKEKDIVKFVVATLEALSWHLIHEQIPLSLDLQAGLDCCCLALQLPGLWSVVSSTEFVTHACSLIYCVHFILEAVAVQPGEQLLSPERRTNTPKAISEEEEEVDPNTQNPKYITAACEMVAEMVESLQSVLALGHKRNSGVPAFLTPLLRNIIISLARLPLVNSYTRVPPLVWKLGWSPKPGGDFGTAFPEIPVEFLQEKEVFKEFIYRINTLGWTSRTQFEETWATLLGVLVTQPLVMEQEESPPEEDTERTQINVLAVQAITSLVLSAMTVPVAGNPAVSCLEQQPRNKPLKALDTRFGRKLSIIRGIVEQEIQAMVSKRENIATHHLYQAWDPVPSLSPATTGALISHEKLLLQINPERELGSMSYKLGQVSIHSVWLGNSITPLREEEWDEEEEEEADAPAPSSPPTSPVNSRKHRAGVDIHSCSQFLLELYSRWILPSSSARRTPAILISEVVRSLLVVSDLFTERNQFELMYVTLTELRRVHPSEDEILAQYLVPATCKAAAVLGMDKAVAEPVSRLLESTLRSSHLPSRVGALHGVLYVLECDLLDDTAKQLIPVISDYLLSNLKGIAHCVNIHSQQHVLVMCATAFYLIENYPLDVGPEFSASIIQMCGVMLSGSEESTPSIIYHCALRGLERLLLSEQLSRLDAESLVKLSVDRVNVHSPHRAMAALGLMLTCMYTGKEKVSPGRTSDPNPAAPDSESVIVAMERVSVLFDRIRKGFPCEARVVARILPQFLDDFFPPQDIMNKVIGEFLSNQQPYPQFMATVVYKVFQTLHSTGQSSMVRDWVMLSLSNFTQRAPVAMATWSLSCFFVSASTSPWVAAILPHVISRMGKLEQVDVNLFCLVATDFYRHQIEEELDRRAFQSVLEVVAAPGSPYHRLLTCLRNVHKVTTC
Assay: mutant huntingtin-calmodulin interaction inhibitors – biochemical, AlphaScreen, primary screen (AID 1671202);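 also: 0% = both proteins with DMSO and 100% = one protein alone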
Details: AlphaScreen His-mHTT/GST-CaM binding, luminescence; at 15 µM, stronger effect = higher value
In all, about 190,000 compounds went through this assay and about 6,900 (3.6%) were called active. The full list was thinned out, with actives kept by preference.
I'd appreciate it if you could supply inhibition values for the items below.
Report as a plain number; the unit % is understood.

Returns the measured inhibition for the input molecule. Input: Nc1nc(SCC(=O)N2CCCCC2)nc2sc3c(c12)CCCC3 35

Queued: CCCCOc1ccc(NC(=O)N(Cc2ccccn2)Cc2ccco2)cc1 -0.5

Also COc1cc(C(=O)N2CCCC2)c([N+](=O)[O-])cc1OC ? -4.1

And the next one, CCN(Cc1ccccc1)C(=O)c1ccccc1Cl ? -7.8

Please give the result for COc1ccc(NC(=O)N2CCC(Cc3ccccc3)CC2)cc1 too. -3.2

Request: C=CCn1c(SC(CCO)C(=O)N2CCCCC2)nc2sc3c(c2c1=O)CCCC3 (stereo unspecified) 35.2

Same question for O=C1C2C(C(=O)N1c1ccccc1[N+](=O)[O-])C1C=CC2C12CC2 (stereo unspecified) please. 3

Here is the next molecule: NNc1nc2sc3c(c2c(=O)n1Cc1ccccc1)CCCC3 79.8

Could you do the same for CC1CCN(CCNC(=O)CN2C(=O)C3CCCN3C(=O)c3ccc(F)cc32)CC1 (stereo unspecified) , please? 1.11

What about this molecule? COc1cc(CN2CCc3nc(N4CCCC4)ncc3C2)cc(OC)c1OC 11.5

Another molecule to check: Cc1ccc2c(c1)C(=O)NC1(CCN(C(=O)c3ccc(C(F)(F)F)cc3)CC1)N2C 4.4
